- system: T1, human GIP receptor (human) (UniProt P48546)
- T1 sequence (looked up): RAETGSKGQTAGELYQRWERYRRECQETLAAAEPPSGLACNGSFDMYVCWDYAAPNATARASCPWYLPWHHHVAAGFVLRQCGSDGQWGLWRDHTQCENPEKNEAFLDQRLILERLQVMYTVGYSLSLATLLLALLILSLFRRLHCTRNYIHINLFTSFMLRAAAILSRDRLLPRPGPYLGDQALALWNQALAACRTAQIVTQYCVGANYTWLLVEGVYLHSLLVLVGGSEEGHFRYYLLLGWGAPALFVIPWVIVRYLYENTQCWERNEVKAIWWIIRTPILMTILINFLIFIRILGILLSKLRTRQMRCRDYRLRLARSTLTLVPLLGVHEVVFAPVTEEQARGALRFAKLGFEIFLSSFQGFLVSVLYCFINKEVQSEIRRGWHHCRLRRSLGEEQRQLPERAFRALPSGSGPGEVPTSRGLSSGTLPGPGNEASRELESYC
- protocol_notes: cell-based or functional assay
Starred links: 1 amine or outer side, 2 acyl side, 3 side chain; linkers in the order of their positions; H or OH if unused. Non-standard residues stand in square brackets, D forms with d. Groups on a side chain read outwards from the residue. No end group written: not given here. *: point of attachment. C20 diacid = O=C(O)CCCCCCCCCCCCCCCCCCC(=O)*; γGlu = O=C(O)[C@H](CCC(=O)[*:2])N[*:1]; NMeY = CN[C@@H](Cc1ccc(O)cc1)C(=O)O; αMeF = C[C@](N)(Cc1ccccc1)C(=O)O; AEEA = NCCOCCOCC(=O)O; Aib = CC(C)(N)C(=O)O
Relative cAMP EC50 overview
Note: unit nM is implicit; provide only the numeric part.

Field: example entries. Status: answers known.
>  <binder>
[NMeY][Aib]QGT[αMeF]TSDYSILLDKIAAK([AEEA-AEEA-γGlu-C20 diacid])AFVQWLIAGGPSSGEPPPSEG-NH2 [Example 300]

>  <Relative cAMP EC50, nM>
0.0975

$$$$
>  <binder>
YXQGTFTSDFSKXLDKKAQXAFIEYLLEXGPSSGAPPPSEG (synthetic construct; SITE 2: note = 2-Aminoisobutyric Acid; SITE 13: note = alpha-methyl-leucine; SITE 17: note = Lysine is chemically modified through conjugation of the epsilon-amino group of the Lysine side chain with (2-[2-(2-Amino-ethoxy)-ethoxy]-acetyl)-(gamma-Glu)-CO-(CH2) 16-CO2H; SITE 20: n) [Example 57]

>  <Relative cAMP EC50, nM>
0.098

$$$$

Query: Look up Relative cAMP EC50 of YXQGTFTSDFSQXLDKKAQXAFIEYLLAGGPSSGEPPPSGS (synthetic construct; SITE 2: note = 2-Aminoisobutyric Acid; SITE 13: note = alpha-methyl-leucine; SITE 17: note = Lysine is chemically modified through conjugation of the epsilon-amino group of the Lysine side chain with (2-[2-(2-Amino-ethoxy)-ethoxy]-acetyl)-(gamma-Glu)-CO-(CH2) 16-CO2H; SITE 20: n) [Example 773] and report it.
Response: 0.0974
